Source of measurements: patent US20090274773A1

# Tested on: HT29
# protocol_details: MTT growth inhibition assay, single agent
# Assay type: cell-based, human
# assay_context: Homo sapiens, HT-29, 48 hours exposure, read-out: Antiproliferative effects IC50s (MTT assay)
Assignment: determine reported pIC50 for the given molecules.
pIC50 here is simply -log10 of the concentration when that concentration is written in mol/L.

**Q:** Returns the measured pIC50 for the input molecule. Input: "N#C[C@H]1[C@H](O)[C@@H](CO)O[C@H]1n1ccc(N)nc1=O"
**A:** 3.80

**Q:** # pIC50 lookup, item "CCCCCCCCCCCCCCCC(=O)Nc1ccn([C@@H]2O[C@H](CO)[C@@H](O)[C@@H]2C#N)c(=O)n1"
**A:** 5.35

---

# System: HOP92
# protocol_details: MTT growth inhibition assay, single agent
# Type: cell-based, human
# assay_context: 24 hours exposure, read-out: Antiproliferative effects IC50s (MTT assay)
Task for the reader: assign each of the following compounds its reported pIC50.
Scale for pIC50: -log10 of concentration given in mol/L; no unit attached.

**Q:** Using the record for N.N.[Cl][Pt][Cl] [Cisplatin, cis-diamminedichlorplatinum (II)] , report its pIC50.
**A:** 5.36

**Q:** Can you share its pIC50? I mean this compound: "O=C(O)C(=O)O.[NH-][C@@H]1CCCC[C@H]1[NH-].[Pt+2]"
**A:** 5.85

---

# System: OVCAR1
# protocol_details: MTT growth inhibition assay, single agent
# Type: cell-based, human
# assay_context: Homo sapiens, 48 hours exposure, read-out: Antiproliferative effects IC50s (MTT assay)
assay_readout: IC50 (µM)
Expressed in µM, but write only the number.

**Q:** # input compound: "CCCCCCCCCCCCCCCC(=O)Nc1ccn([C@@H]2O[C@H](CO)[C@@H](O)[C@@H]2C#N)c(=O)n1" ; wanted: its IC50
**A:** 45

---

# System: HCC2998
# protocol_details: MTT growth inhibition assay, single agent
# Assay type: cell-based, human
# assay_context: 24 hours exposure, read-out: Antiproliferative effects IC50s (MTT assay)
assay_readout: pIC50
pIC50 is a log-scale quantity: -log10 of the concentration expressed in molar.

**Q:** // lookup pIC50 for O=C(O)C(=O)O.[NH-][C@@H]1CCCC[C@H]1[NH-].[Pt+2] [Oxaliplatin]
**A:** 5.40

**Q:** Return reported pIC50; argument: N.N.[Cl][Pt][Cl] [Cisplatin, cis-diamminedichlorplatinum (II)]
**A:** 4.60

---

# System: IGROV1
# protocol_details: MTT growth inhibition assay, single agent
# Assay type: cell-based, human
# assay_context: Homo sapiens, IGROV-1, 48 hours exposure, read-out: Antiproliferative effects IC50s (MTT assay)
# Experimental: All cell lines were obtained from the ATCC (Rockville, Md.). Cells were grown as monolayers in RPMI medium supplemented with 10% fetal calf serum (Invitrogen, Cergy-Pontoise, France), 2 mM glutamine, 100 units/ml penicillin and 100 μg/ml streptomycin. […] The cells were seeded at 2×10^3 cells/well in 96-well plates and treated 24 hours later with increasing concentrations of CYC682. […] Growth inhibition was then determined by the MTT assay.
assay_readout: pIC50
The meaning of pIC50 here: minus log10 of the concentration in molar units.

**Q:** Suppose we examine the compound "CCCCCCCCCCCCCCCC(=O)Nc1ccn([C@@H]2O[C@H](CO)[C@@H](O)[C@@H]2C#N)c(=O)n1" ; what pIC50 value has been reported?
**A:** 5.19

**Q:** Entry under review: "N#C[C@H]1[C@H](O)[C@@H](CO)O[C@H]1n1ccc(N)nc1=O" . Reported pIC50?
**A:** 4.05
